B1: RTN2 (parent)
chain: SERPLEDLRLRLDHLGWVARGTGS

- Variants of: B1
- Protocol summary: protein stability index of a GFP-peptide fusion (GPS, HEK-293T) (PSI 1-6); higher = more stable;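 note: lentivirally expressed fusions sorted by FACS into six bins by GFP to DsRed ratio, PSI derived from sequencing read proportions per bin multiplied by bin number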
- Measurement setup: c terminus: a fixed tail appended
Outcome measure: protein stability index

> print(dat)
    variant.description          outcome.measure  observed
 1                 R20P  protein stability index      3.31
 2                  S1E  protein stability index      2.74
 3                 G21Q  protein stability index      2.78
 4                 G16I  protein stability index      1.75
 5                  D7Q  protein stability index      1.43
 6                 W17N  protein stability index      4.65
 7                 L10H  protein stability index      2.38
 8                  D7N  protein stability index      1.99
 9                  E6G  protein stability index      2.35
10                  R3Y  protein stability index      1.86
11                  R3P  protein stability index      3.56
12                 G23N  protein stability index      2.98
13                 R20S  protein stability index      4.23
14                  R3S  protein stability index      2.07
15                  L5M  protein stability index      2.46
16                  P4W  protein stability index      1.73
17                  P4D  protein stability index      2.53
18                  P4E  protein stability index      2.61
19                 T22C  protein stability index      2.75
20                 A19T  protein stability index       3.5
21                 R20N  protein stability index      3.55
22                  P4F  protein stability index      3.68
23                  D7H  protein stability index      1.87
24                 L10G  protein stability index      3.89
25                 L10P  protein stability index      1.74
26                  L5W  protein stability index      1.97
27                 V18P  protein stability index      3.35
28                 A19H  protein stability index       2.9
29                 G21W  protein stability index      1.68
30                  L5N  protein stability index      1.48
31                  S1P  protein stability index      2.66
32                 R11C  protein stability index      1.52
